Cited source for all entries: ChEMBL document CHEMBL1141461

Test system: Kluyveromyces marxianus
Assay: Antifungal activity against Candida pseudotropicalis GC 3070
Type: functional
property-label: MIC (µg/mL)
Report as a plain number; the unit µg/mL is understood.

Solved cases below.
COC(=O)/C(C)=C/C=C/C=C/CC/C=C/C(C)C(O)C(C)C(O)/C=C/C=C/C=C/C=C/C=C/C=C/CC(OS(=O)(=O)O)C(C)C(=O)CC(O)CC(O)/C=C/CC(O)CC(O)CC(O)/C=C/CC(O)CC(O)/C=C/CC(O)CC(O)CCCN (stereo not given) = 8
C[C@@H]1[C@H](O)[C@@H](C)/C=C/C=C/C=C/C=C/C=C/C=C/C=C/[C@H](O[C@@H]2O[C@H](C)[C@@H](O)[C@H](N)[C@@H]2O)C[C@@H]2O[C@](O)(C[C@@H](O)C[C@@H](O)[C@H](O)CC[C@@H](O)C[C@@H](O)CC(=O)O[C@H]1C)C[C@H](O)[C@H]2C(=O)O [AMPHOTERICIN B] = 0.25
C\C(=C/C=C/C=C/CC/C=C/C(C)C(O)C(C)C(O)/C=C/C=C/C=C/C=C/C=C/C=C/CC(OS(=O)(=O)O)C(C)C(=O)CC(O)CC(O)/C=C/CC(O)CC(O)CC(O)/C=C/CC(O)CC(O)/C=C/CC(O)CC(O)CCCN)C(=O)O (stereo not given) [MEDIOMYCIN A] = 1
C\C(=C/C=C/C=C/CC/C=C/C(C)C(O)C(C)C(O)/C=C/C=C/C=C/C=C/C=C/C=C/CC(O)C(C)C(=O)CC(O)CC(O)/C=C/CC(O)CC(O)CC(O)/C=C/CC(O)CC(O)/C=C/CC(O)CC(O)CCCN)C(=O)O (stereo not given) [MEDIOMYCIN B] = 1

MIC lookup needed for C\C(=C/C=C/C=C/CC/C=C/C(C)C(O)C(C)C(O)/C=C/C=C/C=C/C=C/C=C/C=C/CC(OS(=O)(=O)O)C(C)C(=O)CC(O)CC(O)/C=C/CC(O)CC(O)CC(O)/C=C/CC(O)CC(O)/C=C/CC(O)CC(O)CCCNC(=N)N)C(=O)O (stereo not given) [CLETHRAMYCIN] , thanks.
2
